Cited source for all entries: ChEMBL document CHEMBL1152854

- Tested on: Streptococcus pyogenes
- test-description: Antimicrobial activity against Streptococcus pyogenes at 200 ug/mL after 24 hrs by disk diffusion method
- Type: functional
- stated-conditions: read-out: IZ
Outcome label depends on zone of inhibition at 200 µg/mL relative to 10 mm: at/above gives true (1), below gives false (0).

Prompt line: Determine whether measured zone of inhibition at 200 µg/mL meets or exceeds 10 mm for CC(C)CCC[C@@H](C)[C@H]1CC[C@H]2[C@@H]3CC=C4C[C@@H](O)CC[C@]4(C)[C@H]3CC[C@]12C
Response line: false (0)

Prompt line: Given the entry CC(C)CCC[C@@H](C)[C@H]1CC[C@H]2[C@@H]3CC=C4C/C(=N/Nc5nc6nc7ccccc7nc6s5)CC[C@]4(C)[C@H]3CC[C@]12C , answer whether its zone of inhibition at 200 µg/mL meets or surpasses 10 mm.
Response line: true (1)

Prompt line: Quick check: does CC(C)CCC[C@@H](C)[C@H]1CC[C@H]2[C@@H]3CC=C4C/C(=N/NC(N)=O)CC[C@]4(C)[C@H]3CC[C@]12C have zone of inhibition at 200 µg/mL greater than or equal to 10 mm?
Response line: true (1)

Prompt line: Given the entry CC(C)CCC[C@@H](C)[C@H]1CC[C@H]2[C@@H]3CC=C4C/C(=N/NC(N)=S)CC[C@]4(C)[C@H]3CC[C@]12C , answer whether its zone of inhibition at 200 µg/mL meets or surpasses 10 mm.
Response line: true (1)

Prompt line: In plain terms: is recorded zone of inhibition at 200 µg/mL at least 10 mm for CC(C)CCC[C@@H](C)[C@H]1CC[C@H]2[C@@H]3CC=C4C/C(=N/Nc5nc6nc7ccccc7nc6o5)CC[C@]4(C)[C@H]3CC[C@]12C ?
Response line: true (1)

Prompt line: Decide: zone of inhibition at 200 µg/mL of CC1(C)S[C@@H]2[C@H](NC(=O)[C@H](N)c3ccc(O)cc3)C(=O)N2[C@H]1C(=O)O >= 10 mm?
Response line: true (1)

---

Please respond with reported MIC for every item in the list.
- Test system: Escherichia coli
- test-description: Antimicrobial activity against Escherichia coli after 24 hrs by broth microdilution method
- Format: functional, organism-based
State just the number; it will be interpreted in µg/mL.

Lab book: MIC of CC(C)CCC[C@@H](C)[C@H]1CC[C@H]2[C@@H]3CC=C4C/C(=N/Nc5nc6nc7ccccc7nc6s5)CC[C@]4(C)[C@H]3CC[C@]12C noted as 0.39

// CC1(C)S[C@@H]2[C@H](NC(=O)[C@H](N)c3ccc(O)cc3)C(=O)N2[C@H]1C(=O)O : MIC value = 3.12

// sample CC(C)CCC[C@@H](C)[C@H]1CC[C@H]2[C@@H]3CC=C4C/C(=N/NC(N)=O)CC[C@]4(C)[C@H]3CC[C@]12C , its MIC was 3.12

Field MIC (entry CC(C)CCC[C@@H](C)[C@H]1CC[C@H]2[C@@H]3CC=C4C/C(=N/Nc5nc6nc7ccccc7nc6o5)CC[C@]4(C)[C@H]3CC[C@]12C ) reads 0.39

Measured MIC of CC(C)CCC[C@@H](C)[C@H]1CC[C@H]2[C@@H]3CC=C4C/C(=N/NC(N)=S)CC[C@]4(C)[C@H]3CC[C@]12C : 6.25

---

Please respond with reported MIC for every item in the list.
- System: Staphylococcus aureus
- test-description: Antimicrobial activity against Staphylococcus aureus after 24 hrs by broth microdilution method
- Format: functional, organism-based

Summary for this compound, CC(C)CCC[C@@H](C)[C@H]1CC[C@H]2[C@@H]3CC=C4C/C(=N/NC(N)=S)CC[C@]4(C)[C@H]3CC[C@]12C : MIC is 6.25 µg/mL

// field: MIC; key: CC1(C)S[C@@H]2[C@H](NC(=O)[C@H](N)c3ccc(O)cc3)C(=O)N2[C@H]1C(=O)O ; value = 3.12 µg/mL

Value of measured MIC for the entry CC(C)CCC[C@@H](C)[C@H]1CC[C@H]2[C@@H]3CC=C4C/C(=N/Nc5nc6nc7ccccc7nc6s5)CC[C@]4(C)[C@H]3CC[C@]12C : 0.78 µg/mL

# MIC (compound: CC(C)CCC[C@@H](C)[C@H]1CC[C@H]2[C@@H]3CC=C4C/C(=N/Nc5nc6nc7ccccc7nc6o5)CC[C@]4(C)[C@H]3CC[C@]12C ) is 0.78 µg/mL

MIC reported for this compound CC(C)CCC[C@@H](C)[C@H]1CC[C@H]2[C@@H]3CC=C4C/C(=N/NC(N)=O)CC[C@]4(C)[C@H]3CC[C@]12C : 6.25 µg/mL

---

- System: Streptococcus pyogenes
- test-description: Antimicrobial activity against Streptococcus pyogenes after 24 hrs by broth microdilution method
- Assay type: functional, organism-based
endpoint-name: MIC (µg/mL)
Enter your answer as a number in µg/mL; do not include the unit.

Briefly, MIC measured for CC1(C)S[C@@H]2[C@H](NC(=O)[C@H](N)c3ccc(O)cc3)C(=O)N2[C@H]1C(=O)O [AMOXICILLIN] : 3.12

Entry CC(C)CCC[C@@H](C)[C@H]1CC[C@H]2[C@@H]3CC=C4C/C(=N/NC(N)=S)CC[C@]4(C)[C@H]3CC[C@]12C , MIC reported as 6.25

The recorded MIC for CC(C)CCC[C@@H](C)[C@H]1CC[C@H]2[C@@H]3CC=C4C/C(=N/Nc5nc6nc7ccccc7nc6o5)CC[C@]4(C)[C@H]3CC[C@]12C is 0.78

Measured MIC of CC(C)CCC[C@@H](C)[C@H]1CC[C@H]2[C@@H]3CC=C4C/C(=N/Nc5nc6nc7ccccc7nc6s5)CC[C@]4(C)[C@H]3CC[C@]12C : 0.78

MIC for CC(C)CCC[C@@H](C)[C@H]1CC[C@H]2[C@@H]3CC=C4C/C(=N/NC(N)=O)CC[C@]4(C)[C@H]3CC[C@]12C is 6.25
